# EXPERIMENT_DESCRIPTION: HepG2 liver cancer cell viability effects, profiling panel, resazurin fluorescence, 24 h, PK04 Diversity Set (AID 1172); also: test concentration not given here
# CONDITION_NOTES: higher = more signal
Assign classes using reported z-score values and the ranges A = under -1, B = from -1 up to -0.09, C = -0.09 and over, please.

Observe how each entry below is paired with its result.
molecule=CCOC(=O)C[C@H]1[C@H](OC(=O)c2ccccc2-c2ccccc2)[C@@H](NC(=O)c2ccc3ccccc3n2)c2cc(OCCCO)ccc2N1C(=O)c1ccccc1 class_name=B
molecule=CCOC(=O)C[C@H]1[C@H](OC(=O)c2ccc(-c3ccccc3)cc2)[C@@H](NC(=O)Cc2ccc(OC)cc2)c2cc(OCCCO)ccc2N1C(=O)Cc1ccc(OC)cc1 class_name=C
molecule="O=C1C2C=CC(C(O)c3cc(C(F)(F)F)cc(C(F)(F)F)c3)N(Nc3ccccc3F)C2C(=O)N1c1ccccc1 (stereo not drawn)" class_name=A
molecule="COc1ccc(C(O)C2C=CC3C(=O)N(c4ccccc4)C(=O)C3N2Nc2ccc(C(C)C)cc2)c2ccccc12 (stereo not drawn)" class_name=A
molecule=COC(=O)[C@@]1(Cc2ccc(OC)cc2)[C@H]2c3cc(C(=O)N4CCCC4)n(Cc4ccc(S(C)(=O)=O)cc4)c3C[C@H]2CN1C(=O)c1ccccc1 class_name=B
molecule="CC(=O)n1cc(C(O)C2C=CC3C(=O)N(c4ccccc4)C(=O)C3N2Nc2ccc(C(C)C)cc2)c2ccccc21 (stereo not drawn)" class_name=A

[Q] Exercise: read the entry COC(=O)[C@@]1(Cc2ccccc2)[C@H]2c3cc(C(=O)N(C)C)n(CCn4cc([N+](=O)[O-])nc4C)c3C[C@H]2CN1C(=O)c1ccccc1 and state which class it falls under.
[A] C

[Q] Exercise: read the entry [N-]=[N+]=Nc1ccccc1[C@@H]1OC(c2ccc(OCCCO)cc2)=N[C@]1(Cc1ccccc1)C(=O)NCc1ccccc1 and state which class it falls under.
[A] B
